Data provenance: paper PMC9490060

property.name: melting point

Previously resolved entries follow.
{"compound": "CC1(C)CC[C@]2(C(=O)OCc3cn(-c4ccc(F)cc4)nn3)[C@H](O)C[C@]3(C)C(=CC[C@@H]4[C@@]5(C)CC[C@H](O)[C@@](C)(C=O)[C@@H]5CC[C@]43C)[C@@H]2C1", "melting point": "171 to 172 °C"}
{"compound": "CC1(C)CC[C@]2(C(=O)OCCn3nnnc3-c3ccccc3)[C@H](O)C[C@]3(C)C(=CC[C@@H]4[C@@]5(C)CC[C@H](O)[C@@](C)(C=O)[C@@H]5CC[C@]43C)[C@@H]2C1", "melting point": "196 to 198 °C"}
{"compound": "CC1(C)CC[C@]2(C(=O)OCc3cn(-c4ccc(Cl)cc4)nn3)[C@H](O)C[C@]3(C)C(=CC[C@@H]4[C@@]5(C)CC[C@H](O)[C@@](C)(C=O)[C@@H]5CC[C@]43C)[C@@H]2C1", "melting point": "193 to 194 °C"}
{"compound": "COc1ccc(-c2nnc(COC(=O)[C@]34CCC(C)(C)C[C@H]3C3=CC[C@@H]5[C@@]6(C)CC[C@H](O)[C@@](C)(C=O)[C@@H]6CC[C@@]5(C)[C@]3(C)C[C@H]4O)o2)cc1", "melting point": "126 to 128 °C"}

# input for lookup
# input Any idea what its melting point is? The compound is "COc1cc(-c2nnc(COC(=O)[C@]34CCC(C)(C)C[C@H]3C3=CC[C@@H]5[C@@]6(C)CC[C@H](O)[C@@](C)(C=O)[C@@H]6CC[C@@]5(C)[C@]3(C)C[C@H]4O)o2)cc(OC)c1OC"
# output 136 to 138 °C

---

Tested on: HCT116 (human colorectal cancer cell line)
Assay: MTT anti-proliferative assay, HCT116
Type: cell-based
Settings: Homo sapiens, HCT-116, 48 h incubation, means ± SD, n = 3
IC50 by entry:

Previously resolved entries follow.
{"compound": "Cc1ccc(-n2cc(COC(=O)[C@]34CCC(C)(C)C[C@H]3C3=CC[C@@H]5[C@@]6(C)CC[C@H](O)[C@@](C)(C=O)[C@@H]6CC[C@@]5(C)[C@]3(C)C[C@H]4O)nn2)cc1 [Compound A9]", "IC50": "> 10 µM"}
{"compound": "CC1(C)CC[C@]2(C(=O)OCc3nnc(-c4ccccc4)o3)[C@H](O)C[C@]3(C)C(=CC[C@@H]4[C@@]5(C)CC[C@H](O)[C@@](C)(C=O)[C@@H]5CC[C@]43C)[C@@H]2C1 [Compound B1]", "IC50": "> 10 µM"}
{"compound": "CC1(C)CC[C@]2(C(=O)OCc3cn(-c4ccc(Cl)c(Cl)c4)nn3)[C@H](O)C[C@]3(C)C(=CC[C@@H]4[C@@]5(C)CC[C@H](O)[C@@](C)(C=O)[C@@H]5CC[C@]43C)[C@@H]2C1 [Compound A4]", "IC50": "> 10 µM"}
{"compound": "CC1(C)CC[C@]2(C(=O)OCCn3ncn(-c4ccc(Cl)c(Cl)c4)c3=O)[C@H](O)C[C@]3(C)C(=CC[C@@H]4[C@@]5(C)CC[C@H](O)[C@@](C)(C=O)[C@@H]5CC[C@]43C)[C@@H]2C1 [Compound C4]", "IC50": "> 10 µM"}

# input for lookup
# input Any idea what its IC50 is? The compound is CC1(C)CC[C@]2(C(=O)OCc3cn(-c4ccc(Br)cc4)nn3)[C@H](O)C[C@]3(C)C(=CC[C@@H]4[C@@]5(C)CC[C@H](O)[C@@](C)(C=O)[C@@H]5CC[C@]43C)[C@@H]2C1 [Compound A5]
# output > 10 µM
